Entry source: patent EP4775574A1

methodSummary: Pharmacokinetic determination in SD rats
Type: in vivo
measurementConditions: rat, in vivo, po, gavage 10 mg/kg, plasma, read-out: Time to peak Tmax
reportedMetric: Tmax

For reference, reported Tmax for COCCOc1c([C@H]2[C@H](C(=O)Nc3ccc(F)c(C(=N)NO)c3)O[C@@](C)(C(F)(F)F)[C@H]2C)ccc(F)c1F [Example 10] stands at 52.8 min

###

methodSummary: Pharmacokinetic determination in KM mice
Assay type: in vivo
measurementConditions: mouse, in vivo, po; KM mice, i.g. 10 mg/kg vs i.v. 1 mg/kg; read-out: Bioavailability
reportedMetric: bioavailability
Give the value; after it, write the unit.

Given item "C[C@H]1[C@@H](c2ccc(F)c(F)c2OC2COC2)[C@H](C(=O)Nc2ccc(F)c(C(=N)NO)c2)O[C@@]1(C)C(F)(F)F" , the value recorded as its bioavailability is 71.4%

###

# Lookup of reported Inhibition rate (%) keyed by entry
studyTarget: Nav1.8 sodium channel (Homo sapiens, UniProt Q9Y5Y9)
Construct: host or cells: CHO
Sequence (Q9Y5Y9 whole entry): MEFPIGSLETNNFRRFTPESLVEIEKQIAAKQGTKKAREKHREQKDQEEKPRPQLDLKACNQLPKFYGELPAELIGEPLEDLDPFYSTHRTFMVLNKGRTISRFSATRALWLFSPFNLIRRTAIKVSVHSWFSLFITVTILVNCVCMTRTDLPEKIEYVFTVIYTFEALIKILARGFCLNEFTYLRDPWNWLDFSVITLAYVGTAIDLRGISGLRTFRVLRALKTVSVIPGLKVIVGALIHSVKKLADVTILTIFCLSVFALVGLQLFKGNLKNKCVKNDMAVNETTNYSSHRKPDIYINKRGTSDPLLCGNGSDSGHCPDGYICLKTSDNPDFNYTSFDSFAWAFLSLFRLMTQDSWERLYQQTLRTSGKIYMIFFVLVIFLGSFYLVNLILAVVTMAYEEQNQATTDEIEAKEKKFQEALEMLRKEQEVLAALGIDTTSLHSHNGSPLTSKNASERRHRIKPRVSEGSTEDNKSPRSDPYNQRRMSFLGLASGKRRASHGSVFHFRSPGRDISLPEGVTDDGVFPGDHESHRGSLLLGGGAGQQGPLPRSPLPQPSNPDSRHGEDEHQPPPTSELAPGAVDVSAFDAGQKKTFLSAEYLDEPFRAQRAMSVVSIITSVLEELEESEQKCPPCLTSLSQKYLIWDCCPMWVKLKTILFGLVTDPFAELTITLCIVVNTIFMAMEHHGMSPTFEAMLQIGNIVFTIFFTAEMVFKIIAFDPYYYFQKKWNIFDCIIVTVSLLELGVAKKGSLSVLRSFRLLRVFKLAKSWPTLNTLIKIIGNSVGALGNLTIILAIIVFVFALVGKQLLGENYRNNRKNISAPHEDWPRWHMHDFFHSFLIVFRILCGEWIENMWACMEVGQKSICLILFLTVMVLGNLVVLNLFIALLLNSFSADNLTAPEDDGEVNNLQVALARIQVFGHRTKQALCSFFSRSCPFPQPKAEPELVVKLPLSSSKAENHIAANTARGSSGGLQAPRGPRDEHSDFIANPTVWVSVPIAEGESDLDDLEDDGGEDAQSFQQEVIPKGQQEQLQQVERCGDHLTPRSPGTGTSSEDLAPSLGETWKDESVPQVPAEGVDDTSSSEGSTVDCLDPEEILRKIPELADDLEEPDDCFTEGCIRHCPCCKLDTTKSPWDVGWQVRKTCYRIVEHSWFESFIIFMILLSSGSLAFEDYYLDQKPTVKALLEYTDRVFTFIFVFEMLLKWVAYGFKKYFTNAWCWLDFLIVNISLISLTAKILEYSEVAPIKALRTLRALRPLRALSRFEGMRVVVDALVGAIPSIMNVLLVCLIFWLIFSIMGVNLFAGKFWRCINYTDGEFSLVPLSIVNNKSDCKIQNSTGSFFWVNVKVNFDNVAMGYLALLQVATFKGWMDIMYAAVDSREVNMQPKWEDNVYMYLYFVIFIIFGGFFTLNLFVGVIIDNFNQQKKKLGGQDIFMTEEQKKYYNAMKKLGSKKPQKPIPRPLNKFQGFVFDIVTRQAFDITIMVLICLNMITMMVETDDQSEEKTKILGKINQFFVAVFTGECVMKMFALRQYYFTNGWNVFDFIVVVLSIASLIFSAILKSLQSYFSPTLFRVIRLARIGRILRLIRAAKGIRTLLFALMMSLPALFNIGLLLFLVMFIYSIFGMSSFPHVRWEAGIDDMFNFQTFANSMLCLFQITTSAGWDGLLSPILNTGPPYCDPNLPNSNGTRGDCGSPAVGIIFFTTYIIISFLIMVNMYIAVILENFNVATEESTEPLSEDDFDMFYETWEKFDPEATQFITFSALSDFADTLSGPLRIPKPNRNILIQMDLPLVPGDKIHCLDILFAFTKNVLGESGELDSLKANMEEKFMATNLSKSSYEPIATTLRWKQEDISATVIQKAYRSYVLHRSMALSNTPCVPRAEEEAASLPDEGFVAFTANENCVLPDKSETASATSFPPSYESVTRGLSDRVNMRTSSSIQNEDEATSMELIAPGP
methodSummary: Blocking activity against sodium channel 1.8 (Nav1.8), whole-cell patch-clamp, inhibition rate
Assay type: cell-based
measurementConditions: CHO cell line stably expressing Nav1.8; patch-clamp; test concentration not given
Please give a number only; it is taken to be in %.

Example cases with answers are listed next.
COCCOc1c([C@H]2[C@H](C(=O)Nc3ccc(F)c(C(=N)NO)c3)O[C@@](C)(C(F)(F)F)[C@H]2C)ccc(F)c1F :: 99.65
COc1c([C@H]2[C@H](C(=O)Nc3ccnc(C(N)=O)c3)O[C@@](C)(C(F)(F)F)[C@H]2C)ccc(F)c1F [Reference compound, reference compound] :: 94.49

Per the record, "CONC(=O)c1cc(NC(=O)[C@@H]2O[C@@](C)(C(F)(F)F)[C@@H](C)[C@H]2c2ccc(F)c(F)c2OC)ccn1" has Inhibition rate (%) of 80.08

Kindly note the recorded Inhibition rate (%) for "CNNC(=O)c1cc(NC(=O)[C@@H]2O[C@@](C)(C(F)(F)F)[C@@H](C)[C@H]2c2ccc(F)c(F)c2OC)ccn1" , which is 71.63

Given item "C[C@H]1[C@@H](c2ccc(F)c(F)c2OC2COC2)[C@H](C(=O)Nc2ccc(F)c(C(=N)NO)c2)O[C@@]1(C)C(F)(F)F" , the value recorded as its Inhibition rate (%) is 87.35

###

methodSummary: Pharmacokinetic determination in KM mice
Format: in vivo
measurementConditions: male, KM, mouse, in vivo, po, 10 mg/kg
reportedMetric: half-life (h)
State just the number; it will be interpreted in h.

The reported half-life of the compound COc1c([C@H]2[C@H](C(=O)Nc3ccnc(C(N)=O)c3)O[C@@](C)(C(F)(F)F)[C@H]2C)ccc(F)c1F [Reference compound, reference compound] was 1.97

###

methodSummary: Pharmacokinetic determination in KM mice
Type: in vivo
measurementConditions: male, KM, mouse, in vivo, iv, 1 mg/kg
reportedMetric: Vd (L/kg)
Respond with the bare value in L/kg.

The compound identified as COc1c([C@H]2[C@H](C(=O)Nc3ccnc(C(N)=O)c3)O[C@@](C)(C(F)(F)F)[C@H]2C)ccc(F)c1F [Reference compound, reference compound] registered its Vd at 2.48

###

methodSummary: Pharmacokinetic determination in SD rats
Format: in vivo
measurementConditions: male, rat, po, gavage 10 mg/kg, plasma, read-out: Area under the curve AUC0-t
reportedMetric: AUC(0-t)

Sure, the documented AUC(0-t) for COc1c([C@H]2[C@H](C(=O)Nc3ccnc(C(N)=O)c3)O[C@@](C)(C(F)(F)F)[C@H]2C)ccc(F)c1F [Reference compound, reference compound] is 608 ng·h/mL
